Reference for the values: patent US20050014144A1

tested on: P. aphanidermatum cytochrome b gene F129 and L129 alleles; experiment: ARMS/Scorpion F129L SNP detection assay (Ct of allele selective primers on plasmid DNA templates); design: species or system Pythium aphanidermatum; details: mutant (L129) plasmid template, 2×10^6 molecules/ul
Entries and their A Ct values follow.

>  <substance>
Pt129-A9 (DNA ACCCCAAGGTAATACATAACGCACT; chemistry not given here)

>  <A Ct>
37.1

$$$$
>  <substance>
Pt129-C5 (DNA ACCCCAAGGTAATACATAACCCCTG; chemistry not given here)

>  <A Ct>
42.36

$$$$
>  <substance>
Pt129-S6 (DNA TTGACCCCAAGGTAATACATAACTC; chemistry not given here)

>  <A Ct>
20.84

$$$$
>  <substance>
Pt129-C1 (DNA ACCCCAAGGTAATACATAACCCAAG; chemistry not given here)

>  <A Ct>
42.6

$$$$
>  <substance>
Pt129-A7 (DNA ACCCCAAGGTAATACATAACTCACT; chemistry not given here)

>  <A Ct>
36.33

$$$$
>  <substance>
Pt129-A2 (DNA ACCCCAAGGTAATACATAACCCACT; chemistry not given here)

>  <A Ct>
20.87

$$$$
>  <substance>
Pt129-A8 (DNA ACCCCAAGGTAATACATAACACACT; chemistry not given here)

>  <A Ct>
35.87

$$$$
>  <substance>
Pt129-A6 (DNA ACCCCAAGGTAATACATAACCCGTT; chemistry not given here)

>  <A Ct>
21.3

$$$$
>  <substance>
Pt129-A5 (DNA ACCCCAAGGTAATACATAACCCCTT; chemistry not given here)

>  <A Ct>
21.42

$$$$
>  <substance>
Pt129-A4 (DNA ACCCCAAGGTAATACATAACCCTTT; chemistry not given here)

>  <A Ct>
24.42

$$$$
>  <substance>
Pt129-C6 (DNA ACCCCAAGGTAATACATAACCCGTG; chemistry not given here)

>  <A Ct>
44.17

$$$$
>  <substance>
Pt129-A13 (DNA ACCCCAAGGTAATACATAACTCGTT; chemistry not given here)

>  <A Ct>
41.99

$$$$
>  <substance>
Pt129-A1 (DNA ACCCCAAGGTAATACATAACCCAAT; chemistry not given here)

>  <A Ct>
26.54

$$$$
>  <substance>
Pt129-C2 (DNA ACCCCAAGGTAATACATAACCCACG; chemistry not given here)

>  <A Ct>
43.57

$$$$
>  <substance>
Pt129-A10 (DNA ACCCCAAGGTAATACATAACTCCTT; chemistry not given here)

>  <A Ct>
31.4

$$$$

* * *

tested on: P. aphanidermatum cytochrome b gene F129 and L129 alleles; experiment: ARMS/Scorpion F129L SNP detection assay (Ct of allele selective primers on plasmid DNA templates); parameters: species or system Pythium aphanidermatum; details: mutant (L129) plasmid template, 2×10^6 molecules/ul
measured.parameter: A Ct

>  <substance>
Pt129-A11 (DNA ACCCCAAGGTAATACATAACACCTT; chemistry not given here)

>  <measured.parameter>
A Ct

>  <recorded.result>
31.25

$$$$
>  <substance>
Pt129-A12 (DNA ACCCCAAGGTAATACATAACGCCTT; chemistry not given here)

>  <measured.parameter>
A Ct

>  <recorded.result>
30.16

$$$$
>  <substance>
Pt129-A3 (DNA ACCCCAAGGTAATACATAACCCAGT; chemistry not given here)

>  <measured.parameter>
A Ct

>  <recorded.result>
31.29

$$$$

* * *

tested on: P. aphanidermatum cytochrome b gene F129 and L129 alleles; test: ARMS/Scorpion F129L SNP detection assay (Ct of allele selective primers on plasmid DNA templates); design: species or system Pythium aphanidermatum; conditions: wild type (F129) plasmid template, 2×10^6 molecules/ul
Label False if C Ct falls below 30; label True in every other case.

>  <substance>
Pt129-C2 (DNA ACCCCAAGGTAATACATAACCCACG; chemistry not given here)

>  <category.label>
False

$$$$
>  <substance>
Pt129-A10 (DNA ACCCCAAGGTAATACATAACTCCTT; chemistry not given here)

>  <category.label>
False

$$$$
>  <substance>
Pt129-A5 (DNA ACCCCAAGGTAATACATAACCCCTT; chemistry not given here)

>  <category.label>
True

$$$$
>  <substance>
Pt129-A13 (DNA ACCCCAAGGTAATACATAACTCGTT; chemistry not given here)

>  <category.label>
False

$$$$
>  <substance>
Pt129-C5 (DNA ACCCCAAGGTAATACATAACCCCTG; chemistry not given here)

>  <category.label>
False

$$$$
>  <substance>
Pt129-A1 (DNA ACCCCAAGGTAATACATAACCCAAT; chemistry not given here)

>  <category.label>
True

$$$$
>  <substance>
Pt129-C6 (DNA ACCCCAAGGTAATACATAACCCGTG; chemistry not given here)

>  <category.label>
False

$$$$
>  <substance>
Pt129-C1 (DNA ACCCCAAGGTAATACATAACCCAAG; chemistry not given here)

>  <category.label>
False

$$$$

* * *

test system: P. aphanidermatum cytochrome b gene F129 and L129 alleles; assay: ARMS/Scorpion F129L SNP detection assay (Ct of allele selective primers on plasmid DNA templates); set-up: species or system Pythium aphanidermatum; settings: wild type (F129) plasmid template, 2×10^6 molecules/ul
Entries and their C Ct values follow.

>  <substance>
Pt129-A3 (DNA ACCCCAAGGTAATACATAACCCAGT; chemistry not given here)

>  <C Ct>
40.2

$$$$
>  <substance>
Pt129-A9 (DNA ACCCCAAGGTAATACATAACGCACT; chemistry not given here)

>  <C Ct>
22.14

$$$$
>  <substance>
Pt129-A15 (DNA ACCCCAAGGTAATACATAACGCGTT; chemistry not given here)

>  <C Ct>
30.05

$$$$
>  <substance>
Pt129-A6 (DNA ACCCCAAGGTAATACATAACCCGTT; chemistry not given here)

>  <C Ct>
33.47

$$$$
>  <substance>
Pt129-S6 (DNA TTGACCCCAAGGTAATACATAACTC; chemistry not given here)

>  <C Ct>
20.43

$$$$
>  <substance>
Pt129-C3 (DNA ACCCCAAGGTAATACATAACCCAGG; chemistry not given here)

>  <C Ct>
29.7

$$$$
>  <substance>
Pt129-A11 (DNA ACCCCAAGGTAATACATAACACCTT; chemistry not given here)

>  <C Ct>
24.85

$$$$
>  <substance>
Pt129-A4 (DNA ACCCCAAGGTAATACATAACCCTTT; chemistry not given here)

>  <C Ct>
38.8

$$$$
>  <substance>
Pt129-A8 (DNA ACCCCAAGGTAATACATAACACACT; chemistry not given here)

>  <C Ct>
22.11

$$$$
>  <substance>
Pt129-A7 (DNA ACCCCAAGGTAATACATAACTCACT; chemistry not given here)

>  <C Ct>
22.28

$$$$
>  <substance>
Pt129-A2 (DNA ACCCCAAGGTAATACATAACCCACT; chemistry not given here)

>  <C Ct>
34.01

$$$$
>  <substance>
Pt129-A12 (DNA ACCCCAAGGTAATACATAACGCCTT; chemistry not given here)

>  <C Ct>
27.46

$$$$

* * *

test system: P. aphanidermatum cytochrome b gene F129 and L129 alleles; experiment: ARMS/Scorpion F129L SNP detection assay (Ct of allele selective primers on plasmid DNA templates); set-up: species or system Pythium aphanidermatum; conditions: no template (water only) control

>  <substance>
Pt129-A5 (DNA ACCCCAAGGTAATACATAACCCCTT; chemistry not given here)

>  <NTC amplification>
none

$$$$
>  <substance>
Pt129-A1 (DNA ACCCCAAGGTAATACATAACCCAAT; chemistry not given here)

>  <NTC amplification>
none

$$$$
>  <substance>
Pt129-A10 (DNA ACCCCAAGGTAATACATAACTCCTT; chemistry not given here)

>  <NTC amplification>
none

$$$$

* * *

system: P. aphanidermatum cytochrome b gene F129 and L129 alleles; assay: ARMS/Scorpion F129L SNP detection assay (Ct of allele selective primers on plasmid DNA templates); design: species or system Pythium aphanidermatum; settings: between C and A plasmid template, 2×10^6 molecules/ul

>  <substance>
Pt129-C2 (DNA ACCCCAAGGTAATACATAACCCACG; chemistry not given here)

>  <measured.target>
P. aphanidermatum cytochrome b gene F129 and L129 alleles

>  <ΔCt>
23.15

$$$$
>  <substance>
Pt129-A13 (DNA ACCCCAAGGTAATACATAACTCGTT; chemistry not given here)

>  <measured.target>
P. aphanidermatum cytochrome b gene F129 and L129 alleles

>  <ΔCt>
18.8

$$$$
>  <substance>
Pt129-C6 (DNA ACCCCAAGGTAATACATAACCCGTG; chemistry not given here)

>  <measured.target>
P. aphanidermatum cytochrome b gene F129 and L129 alleles

>  <ΔCt>
24.54

$$$$
>  <substance>
Pt129-A10 (DNA ACCCCAAGGTAATACATAACTCCTT; chemistry not given here)

>  <measured.target>
P. aphanidermatum cytochrome b gene F129 and L129 alleles

>  <ΔCt>
4.2

$$$$
>  <substance>
Pt129-A12 (DNA ACCCCAAGGTAATACATAACGCCTT; chemistry not given here)

>  <measured.target>
P. aphanidermatum cytochrome b gene F129 and L129 alleles

>  <ΔCt>
2.7

$$$$
>  <substance>
Pt129-A3 (DNA ACCCCAAGGTAATACATAACCCAGT; chemistry not given here)

>  <measured.target>
P. aphanidermatum cytochrome b gene F129 and L129 alleles

>  <ΔCt>
8.91

$$$$
>  <substance>
Pt129-A5 (DNA ACCCCAAGGTAATACATAACCCCTT; chemistry not given here)

>  <measured.target>
P. aphanidermatum cytochrome b gene F129 and L129 alleles

>  <ΔCt>
11.09

$$$$
>  <substance>
Pt129-A8 (DNA ACCCCAAGGTAATACATAACACACT; chemistry not given here)

>  <measured.target>
P. aphanidermatum cytochrome b gene F129 and L129 alleles

>  <ΔCt>
13.76

$$$$
>  <substance>
Pt129-C1 (DNA ACCCCAAGGTAATACATAACCCAAG; chemistry not given here)

>  <measured.target>
P. aphanidermatum cytochrome b gene F129 and L129 alleles

>  <ΔCt>
16.81

$$$$
>  <substance>
Pt129-A9 (DNA ACCCCAAGGTAATACATAACGCACT; chemistry not given here)

>  <measured.target>
P. aphanidermatum cytochrome b gene F129 and L129 alleles

>  <ΔCt>
14.96

$$$$
>  <substance>
Pt129-A4 (DNA ACCCCAAGGTAATACATAACCCTTT; chemistry not given here)

>  <measured.target>
P. aphanidermatum cytochrome b gene F129 and L129 alleles

>  <ΔCt>
14.38

$$$$
>  <substance>
Pt129-C5 (DNA ACCCCAAGGTAATACATAACCCCTG; chemistry not given here)

>  <measured.target>
P. aphanidermatum cytochrome b gene F129 and L129 alleles

>  <ΔCt>
22.26

$$$$
>  <substance>
Pt129-A11 (DNA ACCCCAAGGTAATACATAACACCTT; chemistry not given here)

>  <measured.target>
P. aphanidermatum cytochrome b gene F129 and L129 alleles

>  <ΔCt>
6.4

$$$$
>  <substance>
Pt129-A2 (DNA ACCCCAAGGTAATACATAACCCACT; chemistry not given here)

>  <measured.target>
P. aphanidermatum cytochrome b gene F129 and L129 alleles

>  <ΔCt>
13.14

$$$$
>  <substance>
Pt129-A1 (DNA ACCCCAAGGTAATACATAACCCAAT; chemistry not given here)

>  <measured.target>
P. aphanidermatum cytochrome b gene F129 and L129 alleles

>  <ΔCt>
5.79

$$$$
>  <substance>
Pt129-A7 (DNA ACCCCAAGGTAATACATAACTCACT; chemistry not given here)

>  <measured.target>
P. aphanidermatum cytochrome b gene F129 and L129 alleles

>  <ΔCt>
14.05

$$$$
>  <substance>
Pt129-A6 (DNA ACCCCAAGGTAATACATAACCCGTT; chemistry not given here)

>  <measured.target>
P. aphanidermatum cytochrome b gene F129 and L129 alleles

>  <ΔCt>
12.17

$$$$
